- Tested on: ChaGo-K-1
- experiment: relative viability (nuclei count vs DMSO), 5 days (fraction); higher = more cells survive
- test.conditions: first compound 0.03162 µM
Task for the reader: assign each of the following molecules its reported relative viability.

Need relative viability, item CCN(CC)CCCCNc1ncc2cc(-c3cc(OC)cc(OC)c3)c(NC(=O)NC(C)(C)C)nc2n1 + CS(=O)(=O)N1CCN(Cc2cc3nc(-c4cccc5[nH]ncc45)nc(N4CCOCC4)c3s2)CC1 [Pictilisib] (partner 1 µM)
0.559

Which relative viability value belongs to O=c1cc(N2CCOCC2)oc2c(-c3cccc4c3sc3ccccc34)cccc12 + N=C(N)NC(=N)NCCc1ccccc1 [Phenformin] (partner 250 µM) ?
0.579

State the recorded relative viability for this entry: CCN(CC)CCCCNc1ncc2cc(-c3cc(OC)cc(OC)c3)c(NC(=O)NC(C)(C)C)nc2n1 + CCNC(=O)c1noc(-c2cc(C(C)C)c(O)cc2O)c1-c1ccc(CN2CCOCC2)cc1 [Luminespib] (partner 0.01 µM)
0.638

Reported relative viability for O=c1cc(N2CCOCC2)oc2c(-c3cccc4c3sc3ccccc34)cccc12 + CC1(C)CCC(c2ccc(Cl)cc2)=C(CN2CCN(c3ccc(C(=O)NS(=O)(=O)c4ccc(N[C@H](CCN5CCOCC5)CSc5ccccc5)c(S(=O)(=O)C(F)(F)F)c4)cc3)CC2)C1 [Navitoclax] (partner 0.5 µM) : what is it?
0.927

Any idea what its relative viability is? The molecule is O=c1cc(N2CCOCC2)oc2c(-c3cccc4c3sc3ccccc34)cccc12 + Nc1ncn([C@H]2C[C@H](O)[C@@H](CO)O2)c(=O)n1 [Decitabine] (partner 2 µM)
0.539

----------
- System: LU99A
- experiment: relative viability (nuclei count vs DMSO), 5 days (fraction); higher = more cells survive
- test.conditions: first compound 0.8 µM
Just a reminder that ties go to class 0: only relative viability strictly below 0.6 counts as class 1.

Is relative viability of O=c1cc(-c2cccc3c2Sc2ccccc2S3)oc(N2CCOCC2)c1 + O=C(CCCCCCC(=O)Nc1ccccc1)NO [Vorinostat] (partner 1 µM) strictly below 0.6?
class 0

In plain terms, does O=c1cc(-c2cccc3c2Sc2ccccc2S3)oc(N2CCOCC2)c1 + CCNC(=O)c1noc(-c2cc(C(C)C)c(O)cc2O)c1-c1ccc(CN2CCOCC2)cc1 [Luminespib] (partner 0.01 µM) come in under 0.6 for relative viability?
class 1

Say whether its relative viability is strictly beneath 0.6. Entry: COc1nc(C)cnc1NS(=O)(=O)c1cccnc1-c1ccc(-c2nnco2)cc1 [Zibotentan] + N=C(N)NC(=N)NCCc1ccccc1 [Phenformin] (partner 250 µM)
class 0

For O=c1cc(-c2cccc3c2Sc2ccccc2S3)oc(N2CCOCC2)c1 + Cc1nc(NC(=O)N2CCC[C@H]2C(N)=O)sc1-c1ccnc(C(C)(C)C(F)(F)F)c1 [Alpelisib] (partner 2 µM) , is the recorded relative viability below the cut-off of 0.6?
class 0

Dear reviewer, please state whether COc1nc(C)cnc1NS(=O)(=O)c1cccnc1-c1ccc(-c2nnco2)cc1 [Zibotentan] + NC(=O)Nc1cc(-c2cccc(F)c2)sc1C(=O)N[C@H]1CCCNC1 [AZD7762] (partner 0.2 µM) has relative viability strictly beneath 0.6.
class 1

Is relative viability of O=c1cc(-c2cccc3c2Sc2ccccc2S3)oc(N2CCOCC2)c1 + CC(=O)c1c(C)c2cnc(Nc3ccc(N4CCNCC4)cn3)nc2n(C2CCCC2)c1=O [Palbociclib] (partner 0.5 µM) strictly below 0.6?
class 1

Please let me know if O=c1cc(-c2cccc3c2Sc2ccccc2S3)oc(N2CCOCC2)c1 + C[C@]1(O)C[C@@H](c2nc(-c3ccc4ccc(-c5ccccc5)nc4c3)c3c(N)nccn32)C1 [Linsitinib] (partner 1 µM) shows relative viability below 0.6.
class 0

Strictly below 0.6 in relative viability? O=c1cc(-c2cccc3c2Sc2ccccc2S3)oc(N2CCOCC2)c1 + Cc1cc(Nc2cc(N3CCN(C)CC3)nc(Sc3ccc(NC(=O)C4CC4)cc3)n2)n[nH]1 [Tozasertib] (partner 0.1 µM)
class 1

I wonder whether COc1nc(C)cnc1NS(=O)(=O)c1cccnc1-c1ccc(-c2nnco2)cc1 [Zibotentan] + C[C@]1(O)C[C@@H](c2nc(-c3ccc4ccc(-c5ccccc5)nc4c3)c3c(N)nccn32)C1 [Linsitinib] (partner 1 µM) has relative viability below 0.6. Can you tell?
class 1

----------
- Test system: NCI-H3122
- experiment: relative viability (nuclei count vs DMSO), 5 days (fraction); higher = more cells survive
- test.conditions: first compound 0.03162 µM
assay.readout: relative viability
The answer should be written as a number, with no unit following it.

Given CCN(CC)CCCCNc1ncc2cc(-c3cc(OC)cc(OC)c3)c(NC(=O)NC(C)(C)C)nc2n1 + NC(=O)Nc1cc(-c2cccc(F)c2)sc1C(=O)N[C@H]1CCCNC1 [AZD7762] (partner 0.2 µM) , state its recorded relative viability.
0.987

If you can, please state the reported relative viability value of O=c1cc(N2CCOCC2)oc2c(-c3cccc4c3sc3ccccc34)cccc12 + CC1(C)CCC(c2ccc(Cl)cc2)=C(CN2CCN(c3ccc(C(=O)NS(=O)(=O)c4ccc(N[C@H](CCN5CCOCC5)CSc5ccccc5)c(S(=O)(=O)C(F)(F)F)c4)cc3)CC2)C1 [Navitoclax] (partner 0.5 µM) .
0.981

Query (compound): O=c1cc(N2CCOCC2)oc2c(-c3cccc4c3sc3ccccc34)cccc12 + Cc1cc(Nc2cc(N3CCN(C)CC3)nc(Sc3ccc(NC(=O)C4CC4)cc3)n2)n[nH]1 [Tozasertib] (partner 0.1 µM) ; field requested: relative viability
0.418

What value of measured relative viability is listed for O=c1cc(N2CCOCC2)oc2c(-c3cccc4c3sc3ccccc34)cccc12 + Cc1nc(Nc2ncc(C(=O)Nc3c(C)cccc3Cl)s2)cc(N2CCN(CCO)CC2)n1 [Dasatinib] (partner 0.075 µM) ?
0.836

Find the recorded relative viability belonging to O=c1cc(N2CCOCC2)oc2c(-c3cccc4c3sc3ccccc34)cccc12 + CS(=O)(=O)CCNCc1ccc(-c2ccc3ncnc(Nc4ccc(OCc5cccc(F)c5)c(Cl)c4)c3c2)o1 [Lapatinib] (partner 2 µM) and report it.
0.961

Request the reported relative viability associated with CCN(CC)CCCCNc1ncc2cc(-c3cc(OC)cc(OC)c3)c(NC(=O)NC(C)(C)C)nc2n1 + CC(=O)Nc1cccc(-n2c(=O)n(C3CC3)c(=O)c3c(Nc4ccc(I)cc4F)n(C)c(=O)c(C)c32)c1 [Trametinib] (partner 0.02 µM)
0.229

Using the record for CCN(CC)CCCCNc1ncc2cc(-c3cc(OC)cc(OC)c3)c(NC(=O)NC(C)(C)C)nc2n1 + CS(=O)(=O)CCNCc1ccc(-c2ccc3ncnc(Nc4ccc(OCc5cccc(F)c5)c(Cl)c4)c3c2)o1 [Lapatinib] (partner 2 µM) , report its relative viability.
1.04

----------
Hi there, I'd appreciate the recorded relative viability for every entry that follows.
- System: NCI-H1666
- experiment: relative viability (nuclei count vs DMSO), 5 days (fraction); higher = more cells survive
- test.conditions: first compound 0.8 µM

I would be grateful if you could share the reported relative viability for O=c1cc(-c2cccc3c2Sc2ccccc2S3)oc(N2CCOCC2)c1 + COc1cc2c(Oc3ccc(NC(=O)C4(C(=O)Nc5ccc(F)cc5)CC4)cc3F)ccnc2cc1OCCCN1CCOCC1 [Foretinib] (partner 0.25 µM) .
1.13

Consider the compound O=c1cc(-c2cccc3c2Sc2ccccc2S3)oc(N2CCOCC2)c1 + CC1(C)CCC(c2ccc(Cl)cc2)=C(CN2CCN(c3ccc(C(=O)NS(=O)(=O)c4ccc(N[C@H](CCN5CCOCC5)CSc5ccccc5)c(S(=O)(=O)C(F)(F)F)c4)cc3)CC2)C1 [Navitoclax] (partner 0.5 µM) and give its measured relative viability.
0.952

Sample O=c1cc(-c2cccc3c2Sc2ccccc2S3)oc(N2CCOCC2)c1 + Cc1nc(Nc2ncc(C(=O)Nc3c(C)cccc3Cl)s2)cc(N2CCN(CCO)CC2)n1 [Dasatinib] (partner 0.075 µM) — what was its relative viability?
0.851

What measured relative viability goes with COc1nc(C)cnc1NS(=O)(=O)c1cccnc1-c1ccc(-c2nnco2)cc1 [Zibotentan] + CC(=O)Nc1cccc(-n2c(=O)n(C3CC3)c(=O)c3c(Nc4ccc(I)cc4F)n(C)c(=O)c(C)c32)c1 [Trametinib] (partner 0.02 µM) ?
0.821

Any idea what relative viability was measured for O=c1cc(-c2cccc3c2Sc2ccccc2S3)oc(N2CCOCC2)c1 + Nc1nc2[nH]cc(CCc3ccc(C(=O)N[C@@H](CCC(=O)O)C(=O)O)cc3)c2c(=O)[nH]1 [Pemetrexed] (partner 0.2 µM) ?
0.762

Quick check: relative viability of COc1nc(C)cnc1NS(=O)(=O)c1cccnc1-c1ccc(-c2nnco2)cc1 [Zibotentan] + CC1(C)CCC(c2ccc(Cl)cc2)=C(CN2CCN(c3ccc(C(=O)NS(=O)(=O)c4ccc(N[C@H](CCN5CCOCC5)CSc5ccccc5)c(S(=O)(=O)C(F)(F)F)c4)cc3)CC2)C1 [Navitoclax] (partner 0.5 µM) ?
0.767

Bench note: what relative viability did O=c1cc(-c2cccc3c2Sc2ccccc2S3)oc(N2CCOCC2)c1 + O=C(c1cc(Cc2n[nH]c(=O)c3ccccc23)ccc1F)N1CCN(C(=O)C2CC2)CC1 [Olaparib] (partner 8 µM) show?
0.681

Find the recorded relative viability belonging to O=c1cc(-c2cccc3c2Sc2ccccc2S3)oc(N2CCOCC2)c1 + CS(=O)(=O)CCNCc1ccc(-c2ccc3ncnc(Nc4ccc(OCc5cccc(F)c5)c(Cl)c4)c3c2)o1 [Lapatinib] (partner 2 µM) and report it.
0.485

Would you kindly share the measured relative viability for O=c1cc(-c2cccc3c2Sc2ccccc2S3)oc(N2CCOCC2)c1 + COc1cccc2cc(-c3nc([C@H]4CC[C@H](C(=O)O)CC4)n4ncnc(N)c34)[nH]c12 [OSI-027] (partner 0.5 µM) ?
0.923
